ASSAY_SUMMARY: adipocyte viability effects, profiling panel, cell-based, 3T3-L1 adipocytes, calcein-AM fluorescence, 48 h, basal (AID 1163); also: test concentration not given here
STATED_CONDITIONS: 3T3-L1 adipocytes viability, higher = more signal
RECORDED_METRIC: z-score
The response must contain the number and no unit.

These recorded examples may help you get a feel for the data.
CCOC(=O)C[C@H]1[C@H](OC(=O)c2ccc(C(=O)c3ccccc3)cc2)[C@@H](NC(=O)c2ccc(-c3ccccc3)cc2)c2cc(OCCCO)ccc2N1C(=O)c1ccc2ccccc2n1 ... 1.44
COC(=O)C1(C)C=C2C(=C(c3ccccc3)C(=O)C2C)CN1 (centres undefined) ... -0.492
CCOC(=O)[C@H](Cc1ccccc1)NC(=O)CCC1CC(OC(=O)NCc2ccc3c(c2)OCO3)CC2(CCCC(COC(=O)NCC(c3ccccc3)c3ccccc3)O2)O1 (some centres undefined) ... -0.683

Q: If you can, please state the reported z-score value of CCOC(=O)NN=C1C[C@@H](O)[C@@H](O)[C@@H]2[C@@H]3C(=O)N(C(C)(C)C)C(=O)[C@@H]3CC[C@@H]12 .
A: -0.0947

Q: If you can, please state the reported z-score value of Cc1cc2c(nc1C)CCCN2CC(C)ON=C1[C@H]2CCn3c(=O)n(-c4ccccc4)c(=O)n3[C@H]2[C@H](O)[C@@H]2O[C@H]12 (some centres undefined) .
A: 0.0888

Q: If you can, please state the reported z-score value of CO[C@H]1COC(=O)[C@@H]2CCCN2C(=O)CC=C[C@@H](C)[C@H](OC)COC(=O)CC=C[C@@H]1C .
A: 1.04

Q: If you can, please state the reported z-score value of CCCCc1nc2c(c3c1C[C@H](C)OC3)CN(CCC(C)C)CC2 .
A: -0.11

Q: If you can, please state the reported z-score value of CCCNC(=O)[C@@H]1c2ccccc2C(=O)N(c2ccc(C)cn2)[C@H]1c1ccc(CO)cc1 .
A: -0.857

Q: If you can, please state the reported z-score value of CC(CCN1CCc2nc(-c3ccccc3)c(-c3ccccc3)cc2C1)=NOC(C)CN1CCCCc2nc(C)c(C)cc21 (centres undefined) .
A: 0.659

Q: If you can, please state the reported z-score value of CCN1C(=O)[C@H]2[C@H]3[C@H](O)[C@H](O)CC(=NO[C@@H]4O[C@H](CO)[C@@H](O)[C@H](O)[C@H]4O)[C@@H]3CC[C@H]2C1=O .
A: 0.462

Q: If you can, please state the reported z-score value of CC(C)NC(=O)[C@@]1(c2ccc([N+](=O)[O-])cc2)CC(=O)N(CC23CC4CC(CC(C4)C2)C3)[C@@H]1c1ccc(CO)cc1I .
A: 0.58

Q: If you can, please state the reported z-score value of CC(C)CON=C1C[C@@H](O)[C@@H](O)[C@@H]2[C@@H]3C(=O)N(C[C@@H]4CCCO4)C(=O)[C@@H]3CC[C@H]12 .
A: -0.528

Q: If you can, please state the reported z-score value of C=CC[C@@H]1C=C[C@H](ON=C2c3cc(OC)ccc3O[C@H](c3cccc(OC)c3)[C@H]2O)[C@@H](CO)O1 .
A: -0.855

Q: If you can, please state the reported z-score value of CC(=O)O[C@H]1C2=C(C(=O)[C@@H]3O[C@@H]31)[C@H]1C(C)O[C@@H]2[C@@]23C(=O)[C@@H]4O[C@@H]4[C@@H](O)C2=CO[C@H](C)[C@@H]13 (some centres undefined) .
A: -0.392
